Experimental system: PBP3 from Escherichia coli (K-12) (Escherichia coli, UniProt P0AD68)
Sequence (P0AD68 1-577): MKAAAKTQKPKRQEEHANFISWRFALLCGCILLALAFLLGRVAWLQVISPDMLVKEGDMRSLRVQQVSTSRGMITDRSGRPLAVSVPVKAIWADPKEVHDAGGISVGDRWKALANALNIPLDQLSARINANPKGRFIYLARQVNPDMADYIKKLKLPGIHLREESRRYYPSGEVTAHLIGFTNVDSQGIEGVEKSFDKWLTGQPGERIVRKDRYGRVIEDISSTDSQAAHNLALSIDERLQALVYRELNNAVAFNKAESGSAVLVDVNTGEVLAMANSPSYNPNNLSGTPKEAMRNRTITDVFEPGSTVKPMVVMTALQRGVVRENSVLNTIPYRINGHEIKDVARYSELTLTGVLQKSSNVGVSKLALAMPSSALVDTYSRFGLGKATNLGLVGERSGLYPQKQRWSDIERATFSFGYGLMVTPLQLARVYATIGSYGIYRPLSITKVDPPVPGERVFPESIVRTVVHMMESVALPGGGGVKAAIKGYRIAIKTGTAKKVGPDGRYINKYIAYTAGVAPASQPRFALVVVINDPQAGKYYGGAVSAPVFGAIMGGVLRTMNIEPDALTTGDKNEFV
Experimental details: Bocillin-FL fluorescence polarization competition binding, E. coli PBP3
Listed below: EC50 values for each entry.
Measured quantity: EC50

| Compound | Experimental system | Measured quantity | Test result |
| --- | --- | --- | --- |
| CC(C)S(=O)(=O)NC(C(=O)N[C@H]1Cc2cccc(C(=O)O)c2OB1O)c1ccc(P(=O)(O)O)cc1 (some centres unmarked) [Example 60] | PBP3 from Escherichia coli (K-12) (Escherichia coli, UniProt P0AD68) | EC50 | > 250 µM |
| O=C(NCCCS(=O)(=O)N1CCN(C(=O)NC(C(=O)N[C@H]2Cc3ccc(F)c(C(=O)O)c3OB2O)c2cc(F)c(O)c(O)c2Cl)C1=O)Nc1ccncc1 (some centres unmarked) [Example 291] | PBP3 from Escherichia coli (K-12) (Escherichia coli, UniProt P0AD68) | EC50 | < 10 µM |
| CN(CCCN1CCN(C(=O)NC(C(=O)N[C@H]2Cc3ccc(F)c(C(=O)O)c3OB2O)c2cc(F)c(O)c(O)c2Cl)C(=O)C1=O)C(=O)c1cccc(O)c1 (some centres unmarked) [Example 310] | PBP3 from Escherichia coli (K-12) (Escherichia coli, UniProt P0AD68) | EC50 | < 10 µM |
| O=C(NCCS(=O)(=O)N1CCN(C(=O)N[C@@H](C(=O)N[C@H]2Cc3ccc(F)c(C(=O)O)c3OB2O)c2cc(F)c(O)c(O)c2Cl)C1=O)Nc1cccnc1 [Example 267] | PBP3 from Escherichia coli (K-12) (Escherichia coli, UniProt P0AD68) | EC50 | < 10 µM |
| CS(=O)(=O)N1CCN(C(=O)N[C@@H](C(=O)N[C@H]2Cc3cccc(C(=O)O)c3OB2O)c2ccc(P(=O)(O)O)cc2)C1=O (single isomer, unassigned) [Example 6] | PBP3 from Escherichia coli (K-12) (Escherichia coli, UniProt P0AD68) | EC50 | < 10 µM |
| O=C(O)c1c(F)ccc2c1OB(O)[C@@H](NC(=O)C(NC(=O)N1CCN(Cc3cc(F)c(O)c(O)c3Cl)C(=O)C1=O)c1ccc(P(=O)(O)O)cc1)C2 (some centres unmarked) [Example 45] | PBP3 from Escherichia coli (K-12) (Escherichia coli, UniProt P0AD68) | EC50 | < 10 µM |
| CN1CCC[C@H]1C(=O)NC(C(=O)N[C@H]1Cc2cccc(C(=O)O)c2OB1O)c1ccc(P(=O)(O)O)cc1 (some centres unmarked) [Example 66] | PBP3 from Escherichia coli (K-12) (Escherichia coli, UniProt P0AD68) | EC50 | 50 to 250 µM |
| O=C(O)c1cccc2c1OB(O)[C@@H](NC(=O)[C@@H](NC(=O)N1CCCCC1=O)c1ccc(P(=O)(O)O)cc1)C2 [Example 36] | PBP3 from Escherichia coli (K-12) (Escherichia coli, UniProt P0AD68) | EC50 | 50 to 250 µM |
| O=C(NCCCN1CCN(C(=O)N[C@@H](C(=O)N[C@H]2Cc3ccc(F)c(C(=O)O)c3OB2O)c2cc(F)c(O)c(O)c2Cl)C(=O)C1=O)c1ccnc(F)c1F [Example 300] | PBP3 from Escherichia coli (K-12) (Escherichia coli, UniProt P0AD68) | EC50 | < 10 µM |
| CN1CCCN(C(=O)NC(C(=O)N[C@H]2Cc3cccc(C(=O)O)c3OB2O)c2ccc(P(=O)(O)O)cc2)C1=O (some centres unmarked) [Example 38] | PBP3 from Escherichia coli (K-12) (Escherichia coli, UniProt P0AD68) | EC50 | 10 to 50 µM |
| O=C(NC(C(=O)N[C@H]1Cc2cccc(C(=O)O)c2OB1O)c1ccc(P(=O)(O)O)cc1)c1ccc(Cl)cn1 (some centres unmarked) [Example 184] | PBP3 from Escherichia coli (K-12) (Escherichia coli, UniProt P0AD68) | EC50 | < 10 µM |
| O=C(NCCCN1CCN(C(=O)NC(C(=O)N[C@H]2Cc3ccc(F)c(C(=O)O)c3OB2O)c2cc(F)c(O)c(O)c2Cl)C(=O)C1=O)c1cc(O)c(F)c(O)c1 (some centres unmarked) [Example 416] | PBP3 from Escherichia coli (K-12) (Escherichia coli, UniProt P0AD68) | EC50 | < 10 µM |
| O=C(NCCCN1CCN(C(=O)NC(C(=O)N[C@H]2Cc3ccc(F)c(C(=O)O)c3OB2O)c2cc(F)c(O)c(O)c2Cl)C1=O)Nc1cccnc1 (some centres unmarked) [Example 259] | PBP3 from Escherichia coli (K-12) (Escherichia coli, UniProt P0AD68) | EC50 | < 10 µM |
| O=C(NCCN1CCN(C(=O)NC(C(=O)N[C@H]2Cc3ccc(F)c(C(=O)O)c3OB2O)c2cc(F)c(O)c(O)c2Cl)C1=O)c1ccccc1 (some centres unmarked) [Example 242] | PBP3 from Escherichia coli (K-12) (Escherichia coli, UniProt P0AD68) | EC50 | < 10 µM |
| Cc1cnccc1C(=O)NCCCN1CCN(C(=O)NC(C(=O)N[C@H]2Cc3ccc(F)c(C(=O)O)c3OB2O)c2cc(F)c(O)c(O)c2Cl)C(=O)C1=O (some centres unmarked) [Example 297] | PBP3 from Escherichia coli (K-12) (Escherichia coli, UniProt P0AD68) | EC50 | < 10 µM |
| O=C(O)c1c(F)ccc2c1OB(O)[C@@H](NC(=O)C(NC(=O)N1CCN(Cc3ccc(O)c(O)c3Cl)C(=O)C1=O)c1ccc(P(=O)(O)O)cc1)C2 (some centres unmarked) [Example 8] | PBP3 from Escherichia coli (K-12) (Escherichia coli, UniProt P0AD68) | EC50 | < 10 µM |
| O=C(NCCS(=O)(=O)N1CCN(C(=O)NC(C(=O)N[C@H]2Cc3ccc(F)c(C(=O)O)c3OB2O)c2cc(F)c(O)c(O)c2Cl)C1=O)Nc1cccc(O)c1 (some centres unmarked) [Example 266] | PBP3 from Escherichia coli (K-12) (Escherichia coli, UniProt P0AD68) | EC50 | < 10 µM |
| O=C(NCCN1CCN(C(=O)NC(C(=O)N[C@H]2Cc3ccc(F)c(C(=O)O)c3OB2O)c2cc(F)c(O)c(O)c2Cl)C(=O)C1=O)c1nccs1 (some centres unmarked) [Example 218] | PBP3 from Escherichia coli (K-12) (Escherichia coli, UniProt P0AD68) | EC50 | < 10 µM |
| O=C(NCCS(=O)(=O)N1CCN(C(=O)N[C@@H](C(=O)N[C@H]2Cc3ccc(F)c(C(=O)O)c3OB2O)c2cc(F)c(O)c(O)c2Cl)C1=O)c1nccs1 [Example 264] | PBP3 from Escherichia coli (K-12) (Escherichia coli, UniProt P0AD68) | EC50 | < 10 µM |
| O=C(NCCN1CCN(C(=O)NC(C(=O)N[C@H]2Cc3ccc(F)c(C(=O)O)c3OB2O)c2cc(F)c(O)c(O)c2Cl)C1=O)Nc1cccnc1 (some centres unmarked) [Example 251] | PBP3 from Escherichia coli (K-12) (Escherichia coli, UniProt P0AD68) | EC50 | < 10 µM |
| O=C(O)c1cccc2c1OB(O)[C@@H](NC(=O)C(NC(=O)N1CCCC1=O)c1ccc(P(=O)(O)O)cc1)C2 (some centres unmarked) [Example 57] | PBP3 from Escherichia coli (K-12) (Escherichia coli, UniProt P0AD68) | EC50 | 10 to 50 µM |
| O=C(NC(C(=O)N[C@H]1Cc2cccc(C(=O)O)c2OB1O)c1ccc(P(=O)(O)O)cc1)c1ccccn1 (some centres unmarked) [Example 32] | PBP3 from Escherichia coli (K-12) (Escherichia coli, UniProt P0AD68) | EC50 | 10 to 50 µM |
| O=C(O)c1c(F)ccc2c1OB(O)[C@@H](NC(=O)C(NC(=O)N1CCN(C3CCN(C(=O)c4c(F)ccc(O)c4F)CC3)C(=O)C1=O)c1cc(F)c(O)c(O)c1Cl)C2 (some centres unmarked) [Example 308] | PBP3 from Escherichia coli (K-12) (Escherichia coli, UniProt P0AD68) | EC50 | < 10 µM |
